- Test system: Enterococcus faecalis
- assayMethodText: Photodynamic inactivation of Enterococcus faecalis ATCC 29212 assessed as reduction of log10 CFU at 1 uM incubated prior to irradiation with 150 j/cm'2 for 120 secs measured after 24 hrs by agar plating method (reference value: <1 no unit)
- Type: functional
The compounds listed here are annotated with their log10cfu.

A selection of reference data follows.
{"compound": "C[N+](C)(C)CC1=Cc2cccc3cccc(c23)C1=O.[Cl-]", "log10cfu": "<3"}
{"compound": "O=C1C(C[n+]2ccccc2)=Cc2cccc3cccc1c23.[Cl-]", "log10cfu": "<3"}
{"compound": "CCCC[N+](C)(C)CC1=Cc2cccc3cccc(c23)C1=O.[Cl-]", "log10cfu": "<3"}
{"compound": "CC(c1ccccc1)[N+](C)(C)CC1=Cc2cccc3cccc(c23)C1=O.[Cl-] (stereo not given)", "log10cfu": "<3"}

# input Look up and state reported log10cfu for C[N+](C)(CCO)CC1=Cc2cccc3cccc(c23)C1=O.[Cl-]
# output <1

----------
- Test system: Enterococcus faecalis
- assayMethodText: Photodynamic inactivation of Enterococcus faecalis ATCC 29212 assessed as reduction of log10 CFU at 10 uM incubated prior to irradiation with 25 j/cm'2 for 20 secs measured after 24 hrs by agar plating method (reference value: <1 no unit)
- Type: functional
measureName: log10cfu

A selection of reference data follows.
{"compound": "CC(c1ccccc1)[N+](C)(C)CC1=Cc2cccc3cccc(c23)C1=O.[Cl-] (stereo not given)", "log10cfu": "<3"}
{"compound": "C[N+](C)(C)CC1=Cc2cccc3cccc(c23)C1=O.[Cl-]", "log10cfu": "<1"}
{"compound": "O=C1C(C[n+]2ccccc2)=Cc2cccc3cccc1c23.[Cl-]", "log10cfu": "<3"}
{"compound": "C[N+](C)(CCO)CC1=Cc2cccc3cccc(c23)C1=O.[Cl-]", "log10cfu": "<3"}

In the following, a different compound is considered.
# input With Enterococcus faecalis as the test system, provide measured log10cfu for this compound: CCCC[N+](C)(C)CC1=Cc2cccc3cccc(c23)C1=O.[Cl-]
# output <3

----------
The compounds listed here are annotated with their log10cfu.
- Test system: Enterococcus faecalis
- assayMethodText: Photodynamic inactivation of Enterococcus faecalis ATCC 29212 assessed as reduction of log10 CFU at 5 uM incubated prior to irradiation with 50 j/cm'2 for 40 secs measured after 24 hrs by agar plating method (reference value: <1 no unit)
- Type: functional

A selection of reference data follows.
{"compound": "C[N+](C)(C)CC1=Cc2cccc3cccc(c23)C1=O.[Cl-]", "targetOfAssay": "Enterococcus faecalis", "log10cfu": "<3"}
{"compound": "O=C1C(C[n+]2ccccc2)=Cc2cccc3cccc1c23.[Cl-]", "targetOfAssay": "Enterococcus faecalis", "log10cfu": "<3"}
{"compound": "CCCC[N+](C)(C)CC1=Cc2cccc3cccc(c23)C1=O.[Cl-]", "targetOfAssay": "Enterococcus faecalis", "log10cfu": "<3"}
{"compound": "CC(c1ccccc1)[N+](C)(C)CC1=Cc2cccc3cccc(c23)C1=O.[Cl-] (stereo not given)", "targetOfAssay": "Enterococcus faecalis", "log10cfu": "<3"}

# input Look up and state reported log10cfu for C[N+](C)(CCO)CC1=Cc2cccc3cccc(c23)C1=O.[Cl-]
# output <1

----------
- assayMethodText: Octanol-water partition coefficient, log P of the compound at 1 x 10^-4 mol at room temperature after 10 mins by UV/vis spectroscopic analysis
- Format: physicochemical
measureName: logP at 10 min

{"compound": "C[N+](C)(C)CC1=Cc2cccc3cccc(c23)C1=O.[Cl-]", "measureName": "logP at 10 min", "readoutNumber": -1.4}
{"compound": "CC(c1ccccc1)[N+](C)(C)CC1=Cc2cccc3cccc(c23)C1=O.[Cl-] (stereo unspecified)", "measureName": "logP at 10 min", "readoutNumber": -0.1}
{"compound": "C[N+](C)(CCO)CC1=Cc2cccc3cccc(c23)C1=O.[Cl-]", "measureName": "logP at 10 min", "readoutNumber": -1.3}

(A) O=C1C(CCl)=Cc2cccc3cccc1c23
(B) O=C1C(C[n+]2ccccc2)=Cc2cccc3cccc1c23.[Cl-]
(C) CCCC[N+](C)(C)CC1=Cc2cccc3cccc(c23)C1=O.[Cl-]
# input Arrange the 3 compounds by rising logP at 10 min, starting with the smallest. The response must list the labels following the requested ordering.
# output B, C, A
(B: -1.3, C: -0.8, A: 1.3)

Taken from ChEMBL document CHEMBL3297702.
